molecular target: UniProtKB Q8NER1; assay: inhibition of low pH-, capsaicin-, anandamide- and NADA-stimulation of human TRPV1; type: cell-based; settings: IC50, inhibition of NADA-stimulation of human TRPV1, stimulus: NADA
Sequence (Q8NER1 whole entry): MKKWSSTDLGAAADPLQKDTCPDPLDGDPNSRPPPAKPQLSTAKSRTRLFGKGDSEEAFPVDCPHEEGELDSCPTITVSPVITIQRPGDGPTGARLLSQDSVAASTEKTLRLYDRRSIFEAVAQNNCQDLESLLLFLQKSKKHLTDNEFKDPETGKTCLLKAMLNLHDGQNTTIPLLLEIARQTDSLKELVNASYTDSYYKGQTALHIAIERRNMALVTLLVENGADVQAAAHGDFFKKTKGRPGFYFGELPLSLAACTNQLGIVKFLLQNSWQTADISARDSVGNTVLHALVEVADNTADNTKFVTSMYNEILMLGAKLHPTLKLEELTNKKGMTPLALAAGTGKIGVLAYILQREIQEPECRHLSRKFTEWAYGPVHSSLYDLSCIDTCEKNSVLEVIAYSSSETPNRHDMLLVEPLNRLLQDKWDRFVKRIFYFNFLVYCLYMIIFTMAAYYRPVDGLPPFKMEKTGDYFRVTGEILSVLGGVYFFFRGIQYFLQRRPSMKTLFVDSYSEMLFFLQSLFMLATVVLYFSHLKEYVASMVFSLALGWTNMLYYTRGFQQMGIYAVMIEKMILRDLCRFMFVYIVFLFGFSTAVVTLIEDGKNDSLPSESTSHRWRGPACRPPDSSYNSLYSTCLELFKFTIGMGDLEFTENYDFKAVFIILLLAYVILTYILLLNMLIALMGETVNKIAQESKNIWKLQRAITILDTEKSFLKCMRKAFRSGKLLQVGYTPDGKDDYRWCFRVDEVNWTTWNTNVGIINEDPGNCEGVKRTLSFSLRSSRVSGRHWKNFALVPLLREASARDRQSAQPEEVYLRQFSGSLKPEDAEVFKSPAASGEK
pIC50: −log10 of the molar value.

Compound: CC(C)c1nc2cc(O)ccc2c(=O)n1-c1ccc(C#N)cc1 [Example 1]
pIC50: 7.57
